// reported protein stability index per item
B1: MATN2 (parent)
chain: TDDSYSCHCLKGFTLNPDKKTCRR

Variants of: B1
TEST SUMMARY: protein stability index of a GFP-peptide fusion (GPS, HEK-293T) (PSI 1-6); higher = more stable;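 note: lentivirally expressed fusions sorted by FACS into six bins by GFP to DsRed ratio, PSI derived from sequencing read proportions per bin multiplied by bin number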
TEST CONTEXT: c terminus: a fixed tail appended
Kindly provide the number alone.

MUTANT ID | protein stability index
K11Q | 1.83
K20F | 1.85
D18Y | 1.95
D3I | 1.91
Y5A | 3.04

Fill blank: measured protein stability index of the variant K11L is ____.
2.04

Okay, and C7R ?
3.88

Okay, and T1C ?
2

Okay, and D18A ?
2.11

Provenance of the data: the supplement of paper PMC10567573
